src = ChEMBL document CHEMBL1131301

Test Method Notes: Aqueous solubility ([…] degree C)
Type: physicochemical
Test Conditions: water; read-out: S
Readout Name: solubility (mM)

Answered examples (5):
CN(C)c1cc2c(Nc3cccc(Br)c3)ncnc2cn1 ... 0.06
CN(C)CCCNc1cc2c(Nc3cccc(Br)c3)ncnc2cn1 ... 30
OCCN(CCO)CCNc1cc2c(Nc3cccc(Br)c3)ncnc2cn1 ... 36
CN1CCN(NCCCNc2cc3c(Nc4cccc(Br)c4)ncnc3cn2)CC1 ... 32
CN1CCN(c2cc3c(Nc4cccc(Br)c4)ncnc3cn2)CC1 ... 2.5

P: O=C(O)CCNc1cc2c(Nc3cccc(Br)c3)ncnc2cn1
Q: Brc1cccc(Nc2ncnc3cnc(NCCc4ccccn4)cc23)c1
Looking at recorded values for solubility, does P or Q come in lower? // caller expects the label of the chosen entry
Q

P: Cc1cccc(Nc2ncnc3cnc(N(C)C)cc23)c1
Q: CN(CC(O)CO)c1cc2c(Nc3cccc(Br)c3)ncnc2cn1 (stereo unspecified)
// which entry reports the smaller solubility, P or Q ? Choose, then provide that item's label.
P
(P: 0.02 mM, Q: 0.18 mM)

---

Test Method Notes: Aqueous solubility ([…] degree C)
Type: physicochemical
Test Conditions: buffer
Measured S values are reported for all entries that follow.

Guide cases for S, answers given:
Cc1cccc(Nc2ncnc3cnc(NCCc4c[nH]cn4)cc23)c1 ... > 30 mM
Cc1cccc(Nc2ncnc3cnc(NCCN4CCOCC4)cc23)c1 ... > 40 mM
CN(C)CCNc1cc2c(Nc3cccc(Br)c3)ncnc2cn1 ... > 48 mM
Brc1cccc(Nc2ncnc3cnc(NCCCN4CCOCC4)cc23)c1 ... > 44 mM
CN(CCO)CCNc1cc2c(Nc3cccc(Br)c3)ncnc2cn1 ... > 45 mM

Turning now to a further record.
If you can, please state the reported S value of Cc1cccc(Nc2ncnc3cnc(NCCCN4CCOCC4)cc23)c1 .
> 35 mM

---

Study Target: Receptor tyrosine-protein kinase erbB-2 (Homo sapiens, UniProt P04626)
Sequence (P04626 whole entry): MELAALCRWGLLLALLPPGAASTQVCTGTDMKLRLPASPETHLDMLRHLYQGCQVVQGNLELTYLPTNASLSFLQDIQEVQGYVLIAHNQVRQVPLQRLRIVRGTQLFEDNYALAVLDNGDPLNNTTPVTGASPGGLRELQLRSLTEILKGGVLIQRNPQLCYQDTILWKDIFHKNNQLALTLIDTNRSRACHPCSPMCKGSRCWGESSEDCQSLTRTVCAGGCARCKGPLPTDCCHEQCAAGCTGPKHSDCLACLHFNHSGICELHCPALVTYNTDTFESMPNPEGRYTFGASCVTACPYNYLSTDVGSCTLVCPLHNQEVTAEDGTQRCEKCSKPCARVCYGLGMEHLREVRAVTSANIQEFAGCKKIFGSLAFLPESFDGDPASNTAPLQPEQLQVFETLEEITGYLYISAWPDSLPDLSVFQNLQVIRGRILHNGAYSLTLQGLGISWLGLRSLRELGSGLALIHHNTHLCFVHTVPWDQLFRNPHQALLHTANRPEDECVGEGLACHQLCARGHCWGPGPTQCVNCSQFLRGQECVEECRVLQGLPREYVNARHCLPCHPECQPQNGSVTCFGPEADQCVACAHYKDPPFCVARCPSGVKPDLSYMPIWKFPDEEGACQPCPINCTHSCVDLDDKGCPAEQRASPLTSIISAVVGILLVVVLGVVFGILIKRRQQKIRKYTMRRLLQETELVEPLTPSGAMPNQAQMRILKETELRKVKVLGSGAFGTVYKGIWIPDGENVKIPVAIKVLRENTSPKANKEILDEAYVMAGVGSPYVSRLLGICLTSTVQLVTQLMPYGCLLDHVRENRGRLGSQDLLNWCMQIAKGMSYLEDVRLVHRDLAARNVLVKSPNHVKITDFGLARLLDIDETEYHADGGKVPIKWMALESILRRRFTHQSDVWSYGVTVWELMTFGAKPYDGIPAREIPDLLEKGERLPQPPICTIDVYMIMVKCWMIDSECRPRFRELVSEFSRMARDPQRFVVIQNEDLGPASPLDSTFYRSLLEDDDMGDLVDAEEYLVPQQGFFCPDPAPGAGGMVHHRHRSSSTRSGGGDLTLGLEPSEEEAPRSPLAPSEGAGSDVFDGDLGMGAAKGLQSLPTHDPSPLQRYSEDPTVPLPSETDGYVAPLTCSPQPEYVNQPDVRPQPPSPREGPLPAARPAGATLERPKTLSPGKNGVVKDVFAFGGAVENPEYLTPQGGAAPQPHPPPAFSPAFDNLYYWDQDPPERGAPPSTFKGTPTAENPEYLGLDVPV
Test Method Notes: Inhibition of heregulin-dependent autophosphorylation of ErbB2 receptor in MDA-MB-453 cells
Below: a set of entries, each annotated with reported pIC50.
Scale: negative log10 of molar concentration, which is what pIC50 denotes.

Consider the reported pIC50 for these compounds:
Brc1cccc(Nc2ncnc3cnc(NCCN4CCOCC4)cc23)c1 ... 6.66
CN(C)CCNc1cc2c(Nc3cccc(Br)c3)ncnc2cn1 ... 6.42
CCN(CC)CC(O)CNc1cc2c(Nc3cccc(Br)c3)ncnc2cn1 (centres undefined) ... 5.96

For the next question, use this compound.
I'd like to know its pIC50. The compound in question is CNc1cc2c(Nc3cccc(Br)c3)ncnc2cn1
7.28

---

Study Target: Epidermal growth factor receptor (Homo sapiens, UniProt P00533)
Sequence (P00533 whole entry): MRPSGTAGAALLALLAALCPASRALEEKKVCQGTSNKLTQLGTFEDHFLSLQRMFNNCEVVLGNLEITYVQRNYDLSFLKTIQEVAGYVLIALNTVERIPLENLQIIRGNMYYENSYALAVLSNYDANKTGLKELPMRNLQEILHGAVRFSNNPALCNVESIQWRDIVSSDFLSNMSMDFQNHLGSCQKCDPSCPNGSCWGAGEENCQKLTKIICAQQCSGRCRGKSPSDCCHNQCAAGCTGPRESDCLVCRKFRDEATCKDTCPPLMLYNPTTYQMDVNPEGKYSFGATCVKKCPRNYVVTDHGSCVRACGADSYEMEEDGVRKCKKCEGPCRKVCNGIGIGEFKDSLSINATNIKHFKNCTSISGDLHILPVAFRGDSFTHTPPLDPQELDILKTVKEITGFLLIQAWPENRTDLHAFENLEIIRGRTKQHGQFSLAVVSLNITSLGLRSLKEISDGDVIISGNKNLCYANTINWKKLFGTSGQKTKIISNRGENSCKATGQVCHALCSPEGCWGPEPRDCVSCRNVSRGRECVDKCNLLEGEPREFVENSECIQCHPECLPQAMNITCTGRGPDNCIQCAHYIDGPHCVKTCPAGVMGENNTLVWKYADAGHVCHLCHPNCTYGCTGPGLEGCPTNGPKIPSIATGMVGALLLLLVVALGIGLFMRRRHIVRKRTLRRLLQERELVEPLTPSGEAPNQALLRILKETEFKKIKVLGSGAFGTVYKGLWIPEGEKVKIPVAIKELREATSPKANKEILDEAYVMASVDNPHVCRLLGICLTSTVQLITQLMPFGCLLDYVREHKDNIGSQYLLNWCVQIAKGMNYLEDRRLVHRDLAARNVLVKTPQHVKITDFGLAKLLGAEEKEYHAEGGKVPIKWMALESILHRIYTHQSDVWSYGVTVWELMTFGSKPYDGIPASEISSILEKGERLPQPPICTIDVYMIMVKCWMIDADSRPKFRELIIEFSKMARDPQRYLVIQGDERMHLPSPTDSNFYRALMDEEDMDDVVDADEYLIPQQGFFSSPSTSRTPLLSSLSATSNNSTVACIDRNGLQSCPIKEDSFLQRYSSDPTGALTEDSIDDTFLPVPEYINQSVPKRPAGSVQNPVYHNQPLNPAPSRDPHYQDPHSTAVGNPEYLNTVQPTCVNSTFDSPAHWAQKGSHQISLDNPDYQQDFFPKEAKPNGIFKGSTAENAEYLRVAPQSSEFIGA
Test Method Notes: Inhibition of autophosphorylation of epidermal growth factor receptor in A431 cells in culture
pIC50: −log10 of the molar value.
Readout Name: pIC50

Worked cases, pIC50 given:
OCCN(CCO)CCNc1cc2c(Nc3cccc(Br)c3)ncnc2cn1 ... 7.15
CN(C)CCNc1cc2c(Nc3cccc(Br)c3)ncnc2cn1 ... 7.37
Brc1cccc(Nc2ncnc3cnc(NCc4cccnc4)cc23)c1 ... 7.89
Brc1cccc(Nc2ncnc3cnc(NCCCn4ccnc4)cc23)c1 ... 8.04
Brc1cccc(Nc2ncnc3cnc(NCCc4ccccn4)cc23)c1 ... 8.09

P: Brc1cccc(Nc2ncnc3cnc(NCCc4c[nH]cn4)cc23)c1
Q: CN(C)CCCCNc1cc2c(Nc3cccc(Br)c3)ncnc2cn1
For this pair, P and Q , which shows a numerically higher pIC50? Field: selected label. Fill in the label of the entry you choose.
P

a: Brc1cccc(Nc2ncnc3cnc(NCCCN4CCOCC4)cc23)c1
b: CNc1cc2c(Nc3cccc(C)c3)ncnc2cn1
c: OCCN(CCO)CCCNc1cc2c(Nc3cccc(Br)c3)ncnc2cn1
Arrange the 3 entries by pIC50 so the values rise. Reply: labels, ordered per the request.
c, b, a
(c: 6.64, b: 7.64, a: 8.23)

a: CN(C)CCCNc1cc2c(Nc3cccc(Br)c3)ncnc2cn1
b: CN(CCO)CCNc1cc2c(Nc3cccc(Br)c3)ncnc2cn1
Would you kindly point out which of a and b has the smaller pIC50 figure? Your answer should be the label attached to the chosen record.
b
(b: 7.57, a: 7.80)
